Overview of recorded melting point for various compounds
RESULT TYPE: melting point (°C)

1) CC(C)(C)CC(=O)OCC(=O)[C@@]1(O)CC[C@H]2[C@@H]3CCC4=CC(=O)CC[C@]4(C)[C@H]3[C@@H](O)C[C@@]21C    168
2) CCCCCCCCCCCCS    -8
3) CCCCCCN1CCCC1=O    4
4) N#Cc1c2ccccc2cc2ccccc12    175
5) CC(=O)c1ccc(C)c(C)c1    -3
6) O=S(=O)(F)Cc1ccccc1    93
7) Cn1c(=O)cc(O)c2ccccc21    270
8) C[Si]1(C)O[Si](C)(C)O[Si](C)(C)O1    64.5
9) CC1=C(O)C(=O)C(C(C)C)CC1 (centres undefined)    83
10) CCc1ccc(N)cc1    -4.8
11) CCC(C)C(C)(COC(N)=O)COC(N)=O (centres undefined)    77
12) CCCCOC(=O)CCC(=O)OCCCC    -29.2
13) CS(=O)(=O)Nc1ccc([N+](=O)[O-])cc1Oc1ccccc1    144
14) Cc1ccccn1    -66.7

====

Note to self: melting point under 100 °C means yes, ties and anything higher get no.

1) CCOc1ccc(C=O)cc1    yes
2) CCC(C)c1ccccc1OC(=O)NC (stereo not drawn)    yes
3) CC(=O)c1cccs1    yes
4) CN(C)S(=O)N(C)C    yes
5) Clc1ccc(C/C(=C\CN2CCCC2)c2ccccc2)cc1    yes
6) c1ccc2c(c1)CCc1ccccc1-2    yes
7) CCCCCOC(=O)CCC    yes
8) Cc1ccc(NC2=NCCN2)c(Cl)c1    no
9) Cc1ccc(Br)c(C)c1    yes
10) Cc1cnc(C(=O)O)c[n+]1[O-]    no
11) Nc1ccc(S(=O)(=O)Nc2ccc(Cl)nn2)cc1    no
12) O=C(O)c1ccc2c(c1)C(=O)c1ccccc1-2    no
13) CCCCCCCCCCCCCCBr    yes
14) Cc1cc(C(C)(C)C)cc(C(C)(C)C)c1O    yes
15) C=C(C)C(C)=O    yes
16) CC(=O)N(C(C)=O)c1ccc(/N=N/c2ccccc2C)cc1C    yes
17) Oc1ccccc1C=Nc1ccccc1    yes
18) CCN(CC)C(=O)Cl    yes
19) CCOS(=O)(=O)c1ccc(C)cc1    yes
20) CC(=O)Nc1ccccc1C    no
21) CNc1ccccn1    yes
22) c1ccc(-c2nc3ccccc3s2)cc1    no
23) CC(C)(c1cc(Br)c(O)c(Br)c1)c1cc(Br)c(O)c(Br)c1    no
24) Clc1cc(Cl)c2c(c1Cl)Oc1ccccc1O2    no
25) CC(C)(C)C1CCC(=O)CC1    yes
26) C[C@]12CC[C@@H](O)C[C@H]1CC[C@@H]1[C@@H]2C(=O)C[C@@]2(C)[C@H]1CC[C@]2(O)C(=O)CO    no
27) Clc1ccc(-c2c(Cl)cc(Cl)c(Cl)c2Cl)c(Cl)c1    yes
28) NCCc1ccccc1    yes
29) NNC(=O)c1ccc(N)cc1O    no
30) C[C@@H]1O[C@@H](O[C@H]2CC[C@]3(C=O)[C@H]4CC[C@]5(C)[C@@H](C6=CC(=O)OC6)CC[C@]5(O)[C@@H]4CC[C@]3(O)C2)[C@H](O)[C@H](O)[C@H]1O    no
31) O=C(O)c1c(Br)c(O)c(O)c(O)c1Br    no
32) CC(C)=NO    yes
33) C=C(C)C(=O)OCCCC    yes
34) CCc1cnc(C2=NC(C)(C(C)C)C(=O)N2)c(C(=O)O)c1 (stereo not drawn)    no
35) Cc1cc2ccccc2nc1C    yes
36) NNc1ccc(S(=O)(=O)O)cc1    no
37) Cc1ccc(Cl)c(C)c1    yes
38) CCN(CC)CCOC(=O)C(c1ccccc1)c1ccccc1    no
39) Clc1cnc(Cl)c(Cl)c1    yes
40) C[C@@H]1C[C@H]2[C@@H]3CCC4=CC(=O)C=C[C@]4(C)[C@@]3(F)[C@@H](O)C[C@]2(C)[C@H]1C(=O)CO    no
41) O=C(O)c1c(Cl)ccc2cc(Cl)cnc12    no
42) FC(F)(F)C(F)(F)C(F)(F)C(F)(F)N(C(F)(F)C(F)(F)C(F)(F)C(F)(F)F)C(F)(F)C(F)(F)C(F)(F)C(F)(F)F    yes
43) CCN(C(C)=O)c1ccccc1    yes
44) CCCC(c1ccccc1)c1ccccc1    yes
45) C=CC=CC(=O)O    yes
46) N#Cc1cc(I)c(O)c(I)c1    no
47) O=[N+]([O-])c1ccccc1I    yes
48) CC(CO)c1ccccc1 (stereo not drawn)    yes
49) CC(Br)C(C)(C)Br (stereo not drawn)    yes
50) CCCCCCOC(C)=O    yes
51) Nc1ccc(Br)cc1Br    yes
52) Clc1ccc(C(c2ccc(Cl)cc2)C(Cl)Cl)cc1    no
53) OC(C(F)(F)F)C(F)(F)F    yes
54) C[C@]12CCC(=O)C(O)=C1CC[C@@H]1[C@@H]2CC[C@@]2(C)[C@H]1CC[C@]2(C)O    no
55) N#Cc1ccc(N)cc1Cl    no
56) CC(C)(C)c1cccc(C(C)(C)C)c1O    yes
57) CC(=O)Nc1cccnc1    no

====

Kind request: treat 100 °C as inclusive, so melting point at 100 °C or higher is Yes, anything lower is No.

1) CC(C)=CC1C(C(=O)OCc2coc(Cc3ccccc3)c2)C1(C)C (centres undefined)    No
2) CCOCOC(=O)c1ccccc1Nc1c(Cl)ccc(C)c1Cl    No
3) CCc1cc(Cc2cc(CC)cc(C(C)(C)C)c2O)c(O)c(C(C)(C)C)c1    Yes
4) Clc1cc(Cl)c2c(c1)oc1c(Cl)cc(Cl)cc12    Yes
5) N#Cc1ccccc1C(F)(F)F    No
6) Oc1c(Cl)c(Cl)cc(Cl)c1Cl    Yes
7) C=Cc1c(C)cc(C)cc1C    No
8) COc1cc(S(C)=O)ccc1-c1nc2ncccc2[nH]1 (centres undefined)    Yes
9) Cc1ccc2ncccc2c1    No
10) COC(=O)c1sccc1S(=O)(=O)NC(=O)Nc1nc(C)nc(OC)n1    Yes
11) c1cc2c3c(c1)CCCN3CCC2    No
12) CC(C)(O)C(Br)(Br)Br    Yes
13) CCc1cccc(C)c1    No

====

Kind request: treat 3 as inclusive, so log10 Koc (L/kg) at 3 or higher is y, anything lower is n.

1. Cc1cc(C)c(C)c(O)c1    y
2. O=C1C2(Cl)C3(Cl)C4(Cl)C(Cl)(Cl)C5(Cl)C3(Cl)C1(Cl)C5(Cl)C24Cl (configuration not stated)    y
3. CNC(=O)Oc1ccc(N(C)C)c(C)c1    n
4. CCCCOCN(C(=O)CCl)c1c(CC)cccc1CC    n
5. c1cc2ccc3cccc4ccc(c1)c2c34    y
6. COc1cc(C(Cl)(Cl)Cl)cc(Cl)n1    y
7. O=C(O)Cc1cccc2ccccc12    n
8. CNc1ccccc1    n
9. CC(=O)c1ccccc1    n
10. COc1ccccc1    n
11. CC(=O)Nc1cccc(F)c1    n
12. CCOP(=O)(OCC)SCCSCC    n
13. CCOc1nc(NC)nc(NC(=O)NS(=O)(=O)c2ccccc2C(=O)OC)n1    n
14. CC(C)C1(C)N=C(c2nc3ccccc3cc2C(=O)O)NC1=O (configuration not stated)    n
15. COP(=S)(OC)Oc1c(Cl)cc(C)cc1Cl    y
16. CCN(CC)c1ccccc1    n
17. Cc1cc(NC(N)=O)ccc1Br    n
18. CCOc1cc(Oc2ccc(C(F)(F)F)cc2Cl)ccc1[N+](=O)[O-]    y
19. O=[N+]([O-])c1ccc(Cl)c(Cl)c1    n
20. c1ccc2c(c1)sc1ccccc12    y
21. NC(=O)Nc1ccccc1F    n
22. NC(=O)C(Cl)(Cl)Cl    n
23. Nc1cc([N+](=O)[O-])cc([N+](=O)[O-])c1    n
24. COC(=O)c1sccc1S(=O)(=O)NC(=O)Nc1nc(C)nc(OC)n1    n
25. O=C(O)c1ccccc1C(=O)O    n
26. O=[N+]([O-])c1ccc(O)cc1    n
27. NC(=O)c1ccccc1Cl    n
28. CNC(=O)Oc1cc(C)c(SC)c(C)c1    n
29. Cc1ccc2nc3sc(=O)sc3nc2c1    y
30. COC(=O)Nc1cccc(Cl)c1    n
31. Nc1ccccc1    n
32. CC(C)=CC1C(C(=O)OCc2coc(Cc3ccccc3)c2)C1(C)C (configuration not stated)    y
33. O=C1c2ccccc2-c2ccc3c4c(ccc1c24)-c1ccccc1C3=O    y
34. CCCCC(CC)COC(=O)CCCCC(=O)OCC(CC)CCCC (configuration not stated)    y
35. COP(=S)(OC)Oc1ccc([N+](=O)[O-])c(C)c1    n
36. COC(=O)c1ccccc1CS(=O)(=O)NC(=O)Nc1nc(OC)cc(OC)n1    n
37. CN(C)C(=O)Nc1ccc(Cl)cc1    n
38. CON(C)C(=O)Nc1ccc(Br)cc1    n
39. CCCN(CCCl)c1c([N+](=O)[O-])cc(C(F)(F)F)cc1[N+](=O)[O-]    y
40. Clc1cc(-c2cc(Cl)c(Cl)c(Cl)c2Cl)c(Cl)c(Cl)c1Cl    y
41. Cc1cccc(NC(N)=O)c1    n
42. Oc1cc(Cl)cc(Cl)c1Cl    y
43. c1ccc2[nH]c(-c3cscn3)nc2c1    y
44. CCCCOC(=O)COC(=O)c1ccccc1C(=O)OCCCC    y
45. Cc1c2ccccc2c(C)c2c1ccc1ccccc12    y
46. COc1cc(OC)nc(NC(=O)NS(=O)(=O)c2c(-c3nnn(C)n3)cnn2C)n1    n
47. NC(N)=S    n
48. Cc1nc(N(C)C)nc(OC(=O)N(C)C)c1C    n
49. CN(C)NC(=O)CCC(=O)O    n
50. CN(C)C(=O)C(c1ccccc1)c1ccccc1    n
51. CCCc1ccccc1    n
52. CCN(CC)C(=O)SCc1ccc(Cl)cc1    y
53. ClC(Cl)=C(Cl)Cl    n
